Quick reference for EC50 among some substances
target.or.system: B. floridae CRZR3 (Branchiostoma floridae, UniProt A0A9J7HT38)
Sequence (A0A9J7HT38 1-394): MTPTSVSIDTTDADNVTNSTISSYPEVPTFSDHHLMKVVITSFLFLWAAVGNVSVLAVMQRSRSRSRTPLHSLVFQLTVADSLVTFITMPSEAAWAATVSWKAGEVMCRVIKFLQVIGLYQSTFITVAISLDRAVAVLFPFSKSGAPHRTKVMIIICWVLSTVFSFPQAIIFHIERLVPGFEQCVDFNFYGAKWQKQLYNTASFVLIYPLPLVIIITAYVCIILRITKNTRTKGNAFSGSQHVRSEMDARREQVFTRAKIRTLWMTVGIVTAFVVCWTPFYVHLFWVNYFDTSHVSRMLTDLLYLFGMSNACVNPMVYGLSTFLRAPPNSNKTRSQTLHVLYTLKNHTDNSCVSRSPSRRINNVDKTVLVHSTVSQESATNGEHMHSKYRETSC
procedure.details: Luminescence response in HEK293-G5a cells expressing B. floridae CRZR3 (with Gαqi9)
Format: cell-based
particulars: fig. 2D; HEK293-G5a, Gαqi9; 10^−4 M to 10^−12 M in DMEM; luminescence integrated over 65 s; normalized to maximum response; four-parameter curve; minimum of two independent transfections; read-out: EC50 values for the dose–response curves, CRZR3
Ends that are not written are not given here.
// units = nM; emit number, no label

YSYSYGFAP-NH2: 3800

The record that follows has no EC50 shown yet.
Q: Query: EC50; subject: FTYTHTW-NH2 [CRZ, FTYTHTW-NH2]
Result: 6.9
